Just for reference, patent US11994512B2 is where these values come from.

Test system: intracellular proteome of ENR+CD and ENR organoids
Test: LC-MS/MS TMT proteomics of ENR+CD versus ENR organoids
Format: cell-based, C57BL/6 mice
Conditions: up = enriched in ENR+CD, down = enriched in ENR; FDR<0.05 and log fold change cut-off
Excerpt: Because PCs are highly secretory, protein-rich cells, Applicants sought to assess the total intracellular proteome between conditions through liquid chromatography mass spectrometry (LC-MS/MS)-based proteomics. Applicants quantified relative protein abundance across eight samples using isobaric mass tag labeling from four ENR and four ENR+CD samples (M1-1 through M2-2, first digit denotes biological donor, second digit denotes technical replicate) (FIG. 3A). […]
ASSAY ENDPOINT: change

Sample records with change:
Q8WUR0 (protein, UniProt Q8WUR0 1-141, looked up, full-length) MPIMVDDIMRLLCSISQERKMKAAVKHSGKGAMVAGAMAFVGGLVGGPPGIAVGGTVGGLLGAWMTSGQFKPVPQILMELPPAEQRKLVNEAMAIIGNLDWTDAVQLTALVMSNQAMQQRLLAMLTTYVTKELQAEIRYED | down
Q9EPC5 (protein, UniProt Q9EPC5 1-134, looked up, full-length) MPADLSGTWNLLSSDNFEGYMLALGIDFATRKIAKLLKPQKVIEQNGDSFTIQTCSSLRNYLVKFKVGEEFEEDNKGLDNRKCTSLVTWENDKLTCVQRGEKKNRGWSHWIEGDQLHLEMFCEGQVCKQTFQRA | down
Q9CXS4 (protein, UniProt Q9CXS4 1-252, looked up, full-length) MRRTRSAVATGPREQRRSGATGGLSGGESRAQRSRSRTRAGAGGGGGAVGPQPSAKPRPKPPPRAQEAAAEEPPPAVTPAASVSALDLGEQRERWETFQKRQRLSFEGAAKLLLDTFEYQGLVKHTGGCHCGAVRFEVWASADLHIFDCNCSICKKKQNRHFIVPASRFKLLKGAESITTYTFNTHKAQHTFCKRCGVQSFYTPRSNPGGFGIAPHCLDEGTVRSVVTEEFNGSDWERAMKEHKTIKNMSKE | down
P23881 (protein, UniProt P23881 1-347, looked up, full-length) MGLEEELLRIAKKLEKMVSRKKTEGALDLLKKLNSCQMSIQLLQTTRIGVAVNGVRKHCSDKEVVSLAKVLIKNWKRLLDSPRTTKGEREEREKAKKEKGLGCSDWKPEAGLSPPRKKGGGEPKTRRDSVDSRSSTTSSPKRPSLERSNSSKSKVETPTTPSSPSTPTFAPAVCLLAPCYLTGDSVRDKCVEMLSAALKAEDNFKDYGVNCDKLASEIEDHIYQELKSTDMKYRNRVRSRISNLKDPRNPGLRRNVLSGAISPELIAKMTAEEMASDELRELRNAMTQEAIREHQMAKTGGTTTDLLRCSKCKKKNCTYNQVQTRSADEPMTTFVLCNECGNRWKFC | down
Q9CPY1 (protein, UniProt Q9CPY1 1-128, looked up, full-length) MAGSVPWAASRRLWGWVPSACRSFSLGVPRLAFVRLTLPPPKVVDRWNEKRALFGVYDNIGILGNFEKHPKELIKGPVWLRGWRGNELQRCVRKKKFVGNRMFIEDLHNLNKRISYLYKHFNRHGKYR | down

Query: Return reported change. Input molecule: P55050 (protein, UniProt P55050 1-132, looked up, full-length) MAFDGTWKVDRNENYEKFMEKMGINVMKRKLGAHDNLKLTITQDGNKFTVKESSNFRNIDVVFELGVNFPYSLADGTELTGAWTIEGNKLIGKFTRVDNGKELIAVREVSGNELIQTYTYEGVEAKRFFKKE
Result: down

Query: Return reported change. Input molecule: Q8VHC3 (protein, UniProt Q8VHC3 1-145, looked up, full-length) MSILLSPPSLLLLLAALVAPATSTTNYRPDWNRLRGLARGRVETCGGUQLNRLKEVKAFVTEDIQLYHNLVMKHLPGADPELVLLSRNYQELERIPLSQMTRDEINALVQELGFYRKSAPEAQVPPEYLWAPAKPPEEASEHDDL
Result: up
